Values from patent US12281225B2

Assay: Analysis of active substance: preservative concentration before and after storage in VI-containing polymer solution
Type: physicochemical
Conditions: in Polymer P8; storage 28 d at 40° C.
Cut-off 90 ppm on active-substance concentration, 28 d, 40° C., inclusive. At or above means 1; below means -1.

| Molecule | Group |
| --- | --- |
| O=c1[nH]sc2ccccc12 [BIT, 1,2-benzisothiazolin-3-one] | -1 |
| Cn1sccc1=O [MIT, methyl-4-isothiazolin-3-one] | 1 |
| CCCCCCCCCCCCCCCC[N+](C)(C)Cc1ccccc1.[Cl-] [Polymer 16-BAC, cetylalkonium chloride] | 1 |
| CCCCNC(=O)OCC#CI [Iodopropynyl butyl carbamate, iodopropynyl butyl carbamate] | 1 |
| Cn1sc(Cl)cc1=O [CMIT, 5-chloro-N-methylisothiazolin-3-one] | -1 |
| CCCCCCCCCC[N+](C)(C)CCCCCCCCCC.[Cl-] [DDAC, didecyldimethylammonium chloride] | 1 |
| CCCCCCCCn1sc(Cl)c(Cl)c1=O [DCOIT, dichloroctylisothiazolinone] | 1 |
